List of MIC values.
- Test system: Escherichia coli
- Measurement Protocol: Antibacterial activity against Escherichia coli ATCC 35218 after 24 hrs by MTT assay
- Type: functional
- Condition Summary: ATCC 35218, 24 h
Recorded Endpoint: MIC

> print(dat)
                               smiles.input  measurement
1  O=[N+]([O-])c1ccccc1/C=N/c1ccc(NC(=S)Nc2ccccc2)cc1  > 100 µg/mL
2  S=C(Nc1ccccc1)Nc1ccc(/N=C/c2cccc(Br)c2)cc1  > 100 µg/mL
3  Oc1c(Br)cc(Br)cc1/C=N/c1ccc(NC(=S)Nc2ccccc2)cc1  > 100 µg/mL
4   Fc1ccccc1/C=N/c1ccc(NC(=S)Nc2ccccc2)cc1  > 100 µg/mL
5  Oc1c(Br)cc(Br)cc1/C=N/c1ccccc1NC(=S)Nc1ccccc1  > 100 µg/mL
6  S=C(Nc1ccccc1)Nc1ccccc1/N=C/c1ccc(Cl)cc1  > 100 µg/mL
7     Oc1ccccc1/C=N/c1ccccc1NC(=S)Nc1ccccc1  > 100 µg/mL
8  Oc1ccc(Br)cc1/C=N/c1ccccc1NC(=S)Nc1ccccc1  > 100 µg/mL
9  COc1ccc(/C=N/c2ccccc2NC(=S)Nc2ccccc2)cc1  > 100 µg/mL

The values you see were collected from ChEMBL document CHEMBL1821587.
